Biological target: KMT9 (Homo sapiens, UniProt Q9Y5N5)
Sequence (Q9Y5N5 whole entry): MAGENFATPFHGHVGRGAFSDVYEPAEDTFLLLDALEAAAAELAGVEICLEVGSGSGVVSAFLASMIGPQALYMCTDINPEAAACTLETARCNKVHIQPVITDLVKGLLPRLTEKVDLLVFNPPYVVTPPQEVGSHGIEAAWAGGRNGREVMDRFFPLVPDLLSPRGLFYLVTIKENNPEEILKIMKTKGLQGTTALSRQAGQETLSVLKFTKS
Sequence (Q9UI30 1-120 isoform Q9UI30-2 partner): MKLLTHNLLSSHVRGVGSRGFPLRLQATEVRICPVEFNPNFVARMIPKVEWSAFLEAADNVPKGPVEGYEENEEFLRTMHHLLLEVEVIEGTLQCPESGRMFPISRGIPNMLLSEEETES
Assay: Microscale thermophoresis (MST) KMT9 binding
Conditions: microscale thermophoresis, His-tag labelled KMT9 (20 nM); read-out: MST
Collected Kd values appear next to each entry.

>  <compound.smiles>
CCc1cn([C@@H]2C[C@H](CNCCCNCCc3ccc(F)cc3F)[C@@H](O)[C@H]2O)c2ncnc(N)c12

>  <Kd>
10 to 100 nM

$$$$
>  <compound.smiles>
Nc1ncnc2c1c(-c1ccn(S(=O)(=O)c3ccccc3)n1)cn2[C@@H]1C[C@H](CNCCCNCCc2ccccc2)[C@@H](O)[C@H]1O

>  <Kd>
≤ 10 nM

$$$$
>  <compound.smiles>
Nc1ncnc2c1c(-c1ccn[nH]1)cn2[C@@H]1C[C@H](CNCCCNCCc2ccccc2)[C@@H](O)[C@H]1O

>  <Kd>
10 to 100 nM

$$$$
>  <compound.smiles>
O[C@@H]1[C@@H](CN(CCCNCCc2ccccc2)c2cn[nH]c2)C[C@@H](n2cc(-c3cccs3)c3cncnc32)[C@@H]1O

>  <Kd>
10 to 100 nM

$$$$
>  <compound.smiles>
CNc1ncnc2c1ccn2[C@@H]1C[C@H](CN(CCCNCCc2ccccc2)c2cn[nH]c2)[C@@H](O)[C@H]1O

>  <Kd>
100 to 1000 nM

$$$$
>  <compound.smiles>
Nc1ncnc2c1c(-c1nccs1)cn2[C@@H]1C[C@H](CN(CCCNCCc2ccc(F)cc2)c2cn[nH]c2)[C@@H](O)[C@H]1O

>  <Kd>
≤ 10 nM

$$$$

###

Molecular target: KMT9 (Homo sapiens)
Assay: Microscale thermophoresis (MST) KMT9 binding
Settings: His-tag labelled KMT9 20 nM; Kd class; read-out: MST

>  <molecule>
Nc1nc(Cl)nc2c1c(-c1nc(Cc3ccccc3)cs1)cn2[C@@H]1C[C@H](CNCCCNCCc2ccc(F)cc2)[C@@H](O)[C@H]1O

>  <study.system>
KMT9 (Homo sapiens)

>  <Kd>
0.01 to 0.1 µM

$$$$
>  <molecule>
COc1csc(-c2cn([C@@H]3C[C@H](CNCCCNCCc4ccccc4)[C@@H](O)[C@H]3O)c3ncncc23)n1

>  <study.system>
KMT9 (Homo sapiens)

>  <Kd>
> 1 µM

$$$$
>  <molecule>
CN1CCC([C@H]2C[C@@H](n3cc(-c4nc(Cc5ccccc5)cs4)c4c(N)nc(Cl)nc43)[C@H](O)[C@@H]2O)CC1

>  <study.system>
KMT9 (Homo sapiens)

>  <Kd>
≤ 0.01 µM

$$$$
>  <molecule>
Nc1ccc([C@H]2C[C@@H](n3ccc4c(N)ncnc43)[C@H](O)[C@@H]2O)cc1

>  <study.system>
KMT9 (Homo sapiens)

>  <Kd>
> 1 µM

$$$$
>  <molecule>
Nc1ncnc2c1ccn2[C@@H]1C[C@H](c2cccc(O)c2)[C@@H](O)[C@H]1O

>  <study.system>
KMT9 (Homo sapiens)

>  <Kd>
> 1 µM

$$$$
>  <molecule>
O[C@@H]1[C@@H](CNCCCNCCc2ccc(C(F)(F)F)cc2)C[C@@H](n2cc(-c3cc(Cc4ccccc4)cs3)c3cncnc32)[C@@H]1O

>  <study.system>
KMT9 (Homo sapiens)

>  <Kd>
> 1 µM

$$$$
>  <molecule>
O[C@@H]1[C@H](O)[C@@H](C2CCCN(CC(F)(F)F)C2)C[C@H]1n1cc(-c2nc(Cc3ccccc3)cs2)c2cnc(Cl)nc21 (stereo partly drawn)

>  <study.system>
KMT9 (Homo sapiens)

>  <Kd>
> 1 µM

$$$$
>  <molecule>
Nc1ncnc2c1ccn2[C@@H]1C[C@H](c2ccc(O)cc2)[C@@H](O)[C@H]1O

>  <study.system>
KMT9 (Homo sapiens)

>  <Kd>
> 1 µM

$$$$
>  <molecule>
O[C@@H]1[C@H](O)[C@@H](C2=CCCN(CC(F)(F)F)C2)C[C@H]1n1cc(-c2nc(Cc3ccccc3)cs2)c2cnc(Cl)nc21

>  <study.system>
KMT9 (Homo sapiens)

>  <Kd>
> 1 µM

$$$$
>  <molecule>
O[C@@H]1[C@H](O)[C@@H](C2CCN(CCc3ccccc3)CC2)C[C@H]1n1cc(-c2nc(Cc3ccccc3)cs2)c2cnc(Cl)nc21

>  <study.system>
KMT9 (Homo sapiens)

>  <Kd>
0.01 to 0.1 µM

$$$$
>  <molecule>
O[C@@H]1[C@H](O)[C@@H](C2CCN(CC(F)(F)F)CC2)C[C@H]1n1cc(-c2nc(Cc3ccccc3)cs2)c2cnc(Cl)nc21

>  <study.system>
KMT9 (Homo sapiens)

>  <Kd>
> 1 µM

$$$$
>  <molecule>
CS(=O)(=O)n1ccc(-c2cn([C@@H]3C[C@H](CNCCCNCCc4ccccc4)[C@@H](O)[C@H]3O)c3nc(Cl)ncc23)n1

>  <study.system>
KMT9 (Homo sapiens)

>  <Kd>
0.1 to 1 µM

$$$$
>  <molecule>
Nc1ncnc2c1ccn2[C@@H]1C[C@H](c2cccc(-c3cn[nH]c3)c2)[C@@H](O)[C@H]1O

>  <study.system>
KMT9 (Homo sapiens)

>  <Kd>
> 1 µM

$$$$
>  <molecule>
O[C@@H]1[C@@H](CN(CCCNCCc2ccccc2)c2cn[nH]c2)C[C@@H](n2cc(-c3cccs3)c3cnc(Cl)nc32)[C@@H]1O

>  <study.system>
KMT9 (Homo sapiens)

>  <Kd>
≤ 0.01 µM

$$$$
>  <molecule>
O[C@@H]1[C@H](O)[C@@H](C2=CCCN(C3CC3)C2)C[C@H]1n1cc(-c2nc(Cc3ccccc3)cs2)c2cnc(Cl)nc21

>  <study.system>
KMT9 (Homo sapiens)

>  <Kd>
> 1 µM

$$$$
